- system: α1B (Cav2.2), β3 and α2δ subunits of the N-type calcium channel (stable HEK cell line) (Rattus norvegicus)
- test-protocol: Calcium-dye indicator assay (FDSS, KCl depolarization)
- condition-label: calcium mobilization response to 50 mM KCl; six-point concentration-response
The following compounds are listed with their measured pIC50 values.
Schema: pIC50 number; meaning minus log10 of the concentration expressed in molar units.

stdin: Need pIC50 of COc1ccccc1-n1nc(C2CC(C)(C)OC(C)(C)C2)cc1-c1ccc(OCCN2CCOCC2)cc1 [Compound 72] , thanks.
stdout: 7.42

stdin: Need pIC50 of COc1ccccc1-n1nc(C2CC(C)(C)OC(C)(C)C2)cc1C1=CCC(C)(C)CC1 [Compound 8] , thanks.
stdout: 8.80

Others:
stdin: Need pIC50 of COc1ccccc1-n1nc(C2CC(C)(C)OC(C)(C)C2)cc1-c1cc2ccccc2o1 [Compound 41] , thanks.
stdout: 7.19

stdin: Need pIC50 of FC(F)(F)Oc1ccccc1-n1nc(C2CCOCC2)cc1-c1ccc(Cl)cc1 [Compound 79] , thanks.
stdout: 6.74

stdin: Need pIC50 of COc1ncc(-c2cc(C3CC(C)(C)OC(C)(C)C3)nn2-c2ccccc2OC)cn1 [Compound 39] , thanks.
stdout: 7.14

stdin: Need pIC50 of COc1ccccc1-n1nc(C2C[C@@H](C)O[C@H](C)C2)cc1-c1ccccc1 (relative stereo) [Compound 67] , thanks.
stdout: 7.92

stdin: Need pIC50 of COc1ccccc1-n1nc(C2CC(C)(C)OC(C)(C)C2)cc1-c1ccccc1 [Compound 16] , thanks.
stdout: 8.29
